experiment: Inhibition of miR-122 (unknown origin) by luciferase signalling
testReadout: pIC50
Give bare numbers, as −log10 of the molar value.

Please report the measured pIC50 for O=S(=O)(c1ccc2c(c1)CCCN2)N1CCC[C@H]2CCCC[C@@H]21
6.22

----------
test: Activation of miR-122 (unknown origin) by luciferase assay
testReadout: EC50 (nM)
Give bare numbers, in nM.

Please report the measured EC50 for CN(C)CCN1C(=O)c2cccc3cccc(c23)C1=O
3000

----------
assay: Inhibition of miR-122 (unknown origin)
testReadout: pIC50
Numbers only, as −log10 of the molar value.

Please report the measured pIC50 for O=C(Nc1ccc2ccccc2c1)c1ccc(Cl)cc1Cl
5.52
